test: yeast display, Sf9 membrane polyspecificity reagent, FACS + sequencing; frameworks hold sequencing errors
outcome.measure: polyreactivity (PSR sort gate)

Worked examples, 6 sequences total:
INSERT INTO results (sequence_data, outcome_measure, observed) VALUES
  ('QVQLVESGVCLVQAGGSLRLSCASSGRILSTYAMGWYRQPPGKERELVAAISSGGSTYYADSVKGRFTISRDNAKHTVDLQMNSLKPEDTAVYYCNARKKRGYSRPAFDYWGQGTQVTVSS', 'polyreactivity (PSR sort gate)', 'high polyreactivity'),
  ('QVQLVESGGGLVQAGGSLRLSCASSGRISASYAMGWYRQAPGKERELVAAITGSGGSTYYADSVKGRFTISRDNAKNTVYLQMNSLKPEDTAVYYCAAEPGLSVFFEFDSWGQGTQVTVSS', 'polyreactivity (PSR sort gate)', 'low polyreactivity'),
  ('QVQLVESGGGLVQAGGSLRLSCAASGRIFTWYAMGWYRTAPGKERELVATITGDGNTYYADSVKGRFTISRDNAKNTVYLQMKSLKPEDTAVYYCNRYGYFRYRWGKYEYWGQGTQVTVSS', 'polyreactivity (PSR sort gate)', 'high polyreactivity'),
  ('QVQLVESGGGLVQAGRSLRLSCAASVSIFRPNAMGWYRQAPGKERDLVAAISSSGGSTYYSDSVKGRFTISRDNAKNTVYLQMNSLKPDDTAVYYCAAESLSTWIHSRDSWGQGTQVTVSS', 'polyreactivity (PSR sort gate)', 'low polyreactivity'),
  ('QVQLVESGGGLVEAGGSLRLSCAASGSTFSVNAMGRYRQAPGKERELVAAISYRGGSTYYADSVKGRFTISRDNAKNTVYFQMNSLKPEDTAVYYCNAQRYRPGYWYDYWGQGTQVTVSS', 'polyreactivity (PSR sort gate)', 'high polyreactivity'),
  ('QVQLVESGGGLVQAGGSLRLSCAASGRIITRYTMGWYRQAPGKERELVASITSSGSSTYYADSVKGRFTISRDNAKNTFYLQMNSLKPEDTAVYYCAARSRLRYLYDYWGQGTQVTVSS', 'polyreactivity (PSR sort gate)', 'high polyreactivity');

Any idea what polyreactivity (PSR sort gate) was measured for QVQLVESGGGLVQAGGSLRLSCAASGRIFESKAMGWYRQAPGKERELVAAISVNGASTSYADSVKGRFTISRDNAKNTVYLQMNSLKPEDTAVYYCAARRGKGYYYWGQGTQVTVSS ?
high polyreactivity

Any idea what polyreactivity (PSR sort gate) was measured for QVQLVESRGGLVQAGGSLRLSCAASGSIFPYNAMGWYRQAPGKEREFVAAINLSGGSTNYADSVKGRFTISRDNAKNTVYLQMNSLKPEDTAVYYCNAPVDYFWPLNFDYWGQGTQVTVSS ?
low polyreactivity

Any idea what polyreactivity (PSR sort gate) was measured for QVQLVESGGGLVQAGGSRRLSCAASGRTFIVYAMGWYRQAPGKERELVARISSGSRTSYADSVKGRFTISRDNAKNTVYLQMNSLKPEDTAVYYCAKSRVIKYEFDYWGQGTQVTVSS ?
low polyreactivity

Any idea what polyreactivity (PSR sort gate) was measured for QVQLVESGGGLVQAGGSLRLSCAASGSIFHYYAMGWYRQAPGKERELVADITSGGSTNYADSVKGRFTISRDNAKNTVYVQMNSLKQEDTAVYYCNASFQSWLVRVPGDYWGQGTQVTVSS ?
low polyreactivity

Any idea what polyreactivity (PSR sort gate) was measured for QVQLVESGGGLVQAGGSLRLSCAASGSIFRGNSMGWYRQAPGKERELVAVITWSGGSTYYADSVKGRFTISRDNAKNTVYLQMNSLKPEDTAVYYCNAARKQRVYFAGDYWGQGTQVTVSS ?
high polyreactivity

Any idea what polyreactivity (PSR sort gate) was measured for QVQLVESGGGLVQAGGSLRLSCAASGSIYSTYAMGWYRQAPGKERELVAAITSDGTYADSVKGRFTISRDNARNTVYLQMNSLKPEDTAVYYCAAYYPYTRHGDYWGQGTQVTVSS ?
low polyreactivity

Any idea what polyreactivity (PSR sort gate) was measured for QVQLVESGGGLVQAGGSLRLSCAASGSTFYYYTMGWYRQAPGKERELVAAISGSGSRTYYADSVKGRFTISRDNAKNTVYLQMNSLNPEDTGVYYCAAKRSYPYGSGYWGQGTQVTVSS ?
high polyreactivity

Any idea what polyreactivity (PSR sort gate) was measured for QVQLVESGGGLVQAGGSLRLSCAASGSTFGTNAMGWYRQAPGKERELVAAITRGGNTYYADSVKGRFTISRDNAKNTVYLQMNSLKTEDTAVYYCNTYTRASRFDYWGQGTQVTVSS ?
high polyreactivity

Any idea what polyreactivity (PSR sort gate) was measured for QVQLVESGGGLVQAGGSLRLSCAASGSTLPSNTMGWYRQAPGKERELVAAISRNGGSTYYADSVKGRFTISRDNAKNTVYLQMNSLKPEDTAVYYCNRVYRERYPYVLYGYWGQGTQVTVSS ?
high polyreactivity

Any idea what polyreactivity (PSR sort gate) was measured for QVQLVESGGGLVQAGGSLRLSCAASGRIIVDNTMGWYRQAPGQEREFVAVITSGGSTNYADSVKGRYTISRDNAKNTVYLQMNCLNPEDTAVYYCATEPGGYRFDDRPFQFGYWGQGTQVTVSS ?
low polyreactivity
